experiment: in vitro; conditions: human, hela cells, % viability
Please go through the items and note down their viability at 28.5 h, 10 µM.
Write the number in % without appending the unit.

viability at 28.5 h, 10 µM in this record for CC1(C)C(CC(=O)NC2CCCCC2)CC1C(=O)NC1CCCCC1 (stereo not shown) : 98.8

viability at 28.5 h, 10 µM reading for CN1CCC(N2CCN(C(=O)C3(c4ccccc4)CCCC3)CC2)CC1 : 99.3

For this compound ( CCOC(=O)Cc1csc(NC(=O)CSc2nc3cc4c(cc3cc2C)OCO4)n1 ), measured viability at 28.5 h, 10 µM is 105

Short answer for O=S(=O)(c1ccccc1C(F)(F)F)n1ccc2c(N3CCNCC3)nccc21 [CBK045605C] : viability at 28.5 h, 10 µM was 99.5

Per the record, COC[C@H]1CCCN1C(=O)CC[C@H]1CNC(=O)[C@@H]2[C@@H](CCN2C2CCOCC2)N1C has viability at 28.5 h, 10 µM of 90.9

Briefly, viability at 28.5 h, 10 µM measured for Cc1[nH]c(=O)[nH]c(=O)c1CC(=O)NCC1CCN(c2ccccc2F)C1 (stereo not shown) : 99.7

# viability at 28.5 h, 10 µM (compound: O=C(Nc1ccc(F)c(C(F)(F)F)c1)c1cncc(-c2ccc(C(=O)N3CCOCC3)cc2)c1 ) is 88.2

viability at 28.5 h, 10 µM measured on CCOc1ccc(NC(=O)C2CC=CCC2C(=O)O)cc1 (stereo not shown) = 110

Recorded viability at 28.5 h, 10 µM (compound O=C(Nc1ccc2ncccc2c1)c1ccoc1 ): 95.8

Entry under test: COc1ccc(C(NC(=O)c2c(C)nc3sccn23)C2CC(O)C2)cn1 (stereo not shown) . Its viability at 28.5 h, 10 µM was 95.3

Sure, the documented viability at 28.5 h, 10 µM for CC(O)CNCCNCc1cccs1 (stereo not shown) [CBK278279C] is 109

// Cc1nn(C)cc1-c1cc(C(=O)Nc2ccccc2C2CC2)on1 : viability at 28.5 h, 10 µM value = 95.9

For reference, reported viability at 28.5 h, 10 µM for O=C(O)c1ccc(S(=O)(=O)NC2CCS(=O)(=O)C2)cc1 (stereo not shown) stands at 110

Query Nc1nc2c(ccn2[C@@H]2O[C@H](CO)[C@H](O)C2O)c(=O)[nH]1 (stereo partly shown) yields viability at 28.5 h, 10 µM of 92

# viability at 28.5 h, 10 µM of O=C(O)CCCC(=O)N1CCN(Cc2ccc3c(c2)OCO3)CC1 = 99.3

viability at 28.5 h, 10 µM reported for this compound CC(NC(=O)c1ccc(F)cc1Cl)c1ccccc1 (stereo not shown) : 89.3

Note to self: viability at 28.5 h, 10 µM recorded for CCc1ccccc1Nc1nnc(SC(C)C(=O)N2CCCC2)s1 (stereo not shown) was 106

Record O=C(Nc1ccccn1)c1cc2ccccc2oc1=O , field viability at 28.5 h, 10 µM: 91.7

For record CC(=O)N/C(=C/c1ccccc1)C(=O)NCCC(=O)O the listed viability at 28.5 h, 10 µM is 87.2

The value of viability at 28.5 h, 10 µM measured for the compound CN1C(=O)COc2ccccc2CCCC[C@@H]2[C@H]1CCCN2C(=O)CCCn1cccn1 turned out to be 111

Query O=C(CSc1ccccn1)Nc1ccc(C(=O)O)cc1 yields viability at 28.5 h, 10 µM of 87.2

Given item CCOC(=O)Nc1ccc2c(c1)N(C(=O)CN(C)C)c1ccccc1S2 [CBK261290C] , the value recorded as its viability at 28.5 h, 10 µM is 106

Sure, the documented viability at 28.5 h, 10 µM for COc1ccc(CN2CC[C@H]3[C@@H](C2)[C@H](c2ccsc2)CN3C(=O)c2ccccc2)cc1 is 97.6

Record O=C(c1cncnc1)N1CCC2(CCN(C(=O)c3cc(F)c(F)cc3F)C2)C1 (stereo not shown) , field viability at 28.5 h, 10 µM: 94.8

Field viability at 28.5 h, 10 µM (entry Cc1ccccc1Cc1cccc(C2CCN(S(=O)(=O)c3cn[nH]c3)CC2)n1 ) reads 90.8

Please fill in: viability at 28.5 h, 10 µM reported for COc1ccccc1Cc1cccc(C2CCN(C(=O)Cc3c[nH]c4ccccc34)CC2)n1 = 92.8

Noted for COc1ccc(-c2nc(NC(=O)c3ccccn3)cnc2-c2cccc(C(F)(F)F)c2)cc1 : its viability at 28.5 h, 10 µM reads 110

Per the record, COc1ccc2c(c1)CCc1sc(NS(=O)(=O)c3cccc(Cl)c3C)nc1-2 has viability at 28.5 h, 10 µM of 84.3

Taken from paper PMC12040169.
